binding affinity % of 1D2 overview
- ASSAYED SYSTEM: T1, recombinant human GM-CSF (human, UniProt P04141 18-144)
- T1 construct: also called rhGM-CSF; CSF2
- T1 sequence (P04141 18-144 limits assumed): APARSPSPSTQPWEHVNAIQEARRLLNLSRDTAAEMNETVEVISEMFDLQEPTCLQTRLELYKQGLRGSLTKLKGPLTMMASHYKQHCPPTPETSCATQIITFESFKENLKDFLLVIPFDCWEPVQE
- ASSAY METHOD TEXT: ELISA on coated rhGM-CSF, UBA relative to 1D2
Answer format: numeric, % implied, no suffix.

Bench note: what binding affinity % of 1D2 did 1D2 SDR mutant HD31L (antibody, IgG1, V domains shown, also called X1 L) VH: QVQLVQSGAEVKKPGASVKVSCEASGYTFTLKYLHWVRQAPGQGLEWMAWINPKSGGTFYAQNFKGRVTVTRDTSINTAYLELTSLRLDDTSTYYCARGRDYYDQGAADLWGQGTMVTVSS VL: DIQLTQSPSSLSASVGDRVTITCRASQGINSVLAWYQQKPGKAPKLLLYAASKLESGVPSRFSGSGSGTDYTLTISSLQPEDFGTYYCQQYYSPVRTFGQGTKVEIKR show?
57

Bench note: what binding affinity % of 1D2 did 1D2 SDR mutant LP94N (antibody, IgG1, V domains shown, also called X9 N) VH: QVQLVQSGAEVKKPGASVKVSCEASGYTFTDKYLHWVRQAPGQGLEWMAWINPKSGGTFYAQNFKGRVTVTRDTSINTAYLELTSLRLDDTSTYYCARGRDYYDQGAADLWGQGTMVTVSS VL: DIQLTQSPSSLSASVGDRVTITCRASQGINSVLAWYQQKPGKAPKLLLYAASKLESGVPSRFSGSGSGTDYTLTISSLQPEDFGTYYCQQYYSNVRTFGQGTKVEIKR show?
60

Bench note: what binding affinity % of 1D2 did 1D2 SDR mutant HY103W (antibody, IgG1, V domains shown, also called X6 W) VH: QVQLVQSGAEVKKPGASVKVSCEASGYTFTDKYLHWVRQAPGQGLEWMAWINPKSGGTFYAQNFKGRVTVTRDTSINTAYLELTSLRLDDTSTYYCARGRDYWDQGAADLWGQGTMVTVSS VL: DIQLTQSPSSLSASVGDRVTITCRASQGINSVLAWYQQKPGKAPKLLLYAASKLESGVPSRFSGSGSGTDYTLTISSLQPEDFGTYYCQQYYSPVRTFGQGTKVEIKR show?
139

Bench note: what binding affinity % of 1D2 did 1D2 SDR mutant LP94C (antibody, IgG1, V domains shown, also called X9 C) VH: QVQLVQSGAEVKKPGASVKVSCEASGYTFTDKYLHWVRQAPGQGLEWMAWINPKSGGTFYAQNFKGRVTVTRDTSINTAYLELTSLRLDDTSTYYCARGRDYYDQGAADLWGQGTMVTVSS VL: DIQLTQSPSSLSASVGDRVTITCRASQGINSVLAWYQQKPGKAPKLLLYAASKLESGVPSRFSGSGSGTDYTLTISSLQPEDFGTYYCQQYYSCVRTFGQGTKVEIKR show?
253

Bench note: what binding affinity % of 1D2 did 1D2 SDR mutant HY103M (antibody, IgG1, V domains shown, also called X6 M) VH: QVQLVQSGAEVKKPGASVKVSCEASGYTFTDKYLHWVRQAPGQGLEWMAWINPKSGGTFYAQNFKGRVTVTRDTSINTAYLELTSLRLDDTSTYYCARGRDYMDQGAADLWGQGTMVTVSS VL: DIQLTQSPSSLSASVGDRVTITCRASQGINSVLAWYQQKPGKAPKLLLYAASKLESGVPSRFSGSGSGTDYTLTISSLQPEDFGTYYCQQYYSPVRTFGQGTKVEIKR show?
94
